Measured pKi accompanies every entry in the list below.
Target: hCA IX (Homo sapiens, UniProt Q16790)
Construct: recombinant, tumor-associated transmembrane isoform
Assay: stopped-flow CO2 hydration assay
FYI, pKi means -log10 of a concentration in mol per litre.

Example compounds with recorded pKi:
API: value(readout= pKi, system= hCA IX (Homo sapiens, UniProt Q16790), query= COc1ccc(/C=C2/SC(=S)N(CC(=O)Nc3ccc(S(N)(=O)=O)cc3)C2=O)cc1OC )
8.09

Same read-out for C=CCOc1ccc(/C=C2/SC(=S)N(CC(=O)Nc3ccc(S(N)(=O)=O)cc3)C2=O)cc1 ?
8.25

Same read-out for NS(=O)(=O)c1ccc(NC(=O)CN2C(=O)/C(=C\c3ccc(F)c(F)c3)SC2=S)cc1 ?
7.87

Same read-out for CCOc1cc(/C=C2/SC(=S)N(CC(=O)Nc3ccc(S(N)(=O)=O)cc3)C2=O)ccc1O ?
8.25

Same read-out for COc1cccc(/C=C2/SC(=S)N(CC(=O)Nc3ccc(S(N)(=O)=O)cc3)C2=O)c1 ?
7.80

Same read-out for NS(=O)(=O)c1ccc(NC(=O)CN2C(=O)/C(=C\c3ccc(C(F)(F)F)cc3)SC2=S)cc1 ?
8.10

Same read-out for COc1cc(/C=C2/SC(=S)N(CC(=O)Nc3ccc(S(N)(=O)=O)cc3)C2=O)cc(OC)c1O ?
8.14

Same read-out for N#Cc1ccc(/C=C2/SC(=S)N(CC(=O)Nc3ccc(S(N)(=O)=O)cc3)C2=O)cc1 ?
8.14

Here's the next entry for you.
API: value(readout= pKi, system= hCA IX (Homo sapiens, UniProt Q16790), query= NS(=O)(=O)c1ccc(NC(=O)CN2C(=O)/C(=C\c3cccc([N+](=O)[O-])c3)SC2=S)cc1 )
8.08
